Test system: Trichoderma reesei
Experiment: Antifungal activity against Trichoderma reesei ATCC 13631 incubated for 24 hrs by serial dilution method
Assay type: functional
Conditions: ATCC 13631, 24 h
Answer each item with its documented MIC.
Respond numerically; units are µg/mL and should not be typed.

Quick check: MIC of "O=C1Oc2ccccc2N/C1=C\C(=O)c1cccc2ccccc12" ?
100

Report MIC for CC(=O)N1CCN(c2ccc(OCC3COC(Cn4ccnc4)(c4ccc(Cl)cc4Cl)O3)cc2)CC1 (stereo not drawn) [KETOCONAZOLE] please.
25

Fill in the blank: the reported MIC of "O=C1Oc2ccc(Cl)cc2N/C1=C\C(=O)c1ccc(C2CCCCC2)cc1" is ____.
25

Would you mind telling me what MIC value was observed for "O=C1Oc2ccc([N+](=O)[O-])cc2N/C1=C\C(=O)c1ccc(C2CCCCC2)cc1" ?
25

Need MIC of "O=C1Oc2cc([N+](=O)[O-])ccc2N/C1=C\C(=O)c1cccc2ccccc12" , thanks.
25

Requested read-out: MIC. Entry: "O=C1Oc2ccccc2N/C1=C\C(=O)C1CC1"
100

Look up MIC: "O=C1Oc2cc([N+](=O)[O-])ccc2N/C1=C\C(=O)c1ccc(C2CCCCC2)cc1"
25

// returns reported MIC for input "O=C1Oc2ccc([N+](=O)[O-])cc2N/C1=C\C(=O)c1ccc(-c2ccccc2)cc1"
100
